All values here come from ChEMBL document CHEMBL5338777.

Target: Toll-like receptor 1/2 (Homo sapiens, UniProt O60603+Q15399)
Sequence (O60603 whole entry): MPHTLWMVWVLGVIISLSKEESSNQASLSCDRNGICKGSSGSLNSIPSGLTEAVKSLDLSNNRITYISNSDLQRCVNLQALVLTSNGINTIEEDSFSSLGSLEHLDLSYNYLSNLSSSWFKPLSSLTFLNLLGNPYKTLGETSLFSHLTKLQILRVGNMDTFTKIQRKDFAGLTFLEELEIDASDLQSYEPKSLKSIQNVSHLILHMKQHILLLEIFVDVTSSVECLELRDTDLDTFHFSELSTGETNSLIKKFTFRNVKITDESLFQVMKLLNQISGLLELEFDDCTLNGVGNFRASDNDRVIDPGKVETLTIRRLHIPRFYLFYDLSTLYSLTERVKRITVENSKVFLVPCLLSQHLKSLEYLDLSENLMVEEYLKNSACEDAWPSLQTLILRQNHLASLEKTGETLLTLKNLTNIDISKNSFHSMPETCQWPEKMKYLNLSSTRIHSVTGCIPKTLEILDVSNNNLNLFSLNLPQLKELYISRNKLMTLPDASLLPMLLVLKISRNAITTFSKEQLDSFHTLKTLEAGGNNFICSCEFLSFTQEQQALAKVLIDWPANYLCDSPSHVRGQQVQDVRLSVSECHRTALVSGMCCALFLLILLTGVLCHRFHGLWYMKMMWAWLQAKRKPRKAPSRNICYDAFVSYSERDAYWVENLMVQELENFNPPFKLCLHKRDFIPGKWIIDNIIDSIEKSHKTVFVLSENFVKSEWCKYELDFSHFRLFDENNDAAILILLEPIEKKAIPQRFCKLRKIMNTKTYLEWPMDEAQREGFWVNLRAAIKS
Sequence (Q15399 whole entry): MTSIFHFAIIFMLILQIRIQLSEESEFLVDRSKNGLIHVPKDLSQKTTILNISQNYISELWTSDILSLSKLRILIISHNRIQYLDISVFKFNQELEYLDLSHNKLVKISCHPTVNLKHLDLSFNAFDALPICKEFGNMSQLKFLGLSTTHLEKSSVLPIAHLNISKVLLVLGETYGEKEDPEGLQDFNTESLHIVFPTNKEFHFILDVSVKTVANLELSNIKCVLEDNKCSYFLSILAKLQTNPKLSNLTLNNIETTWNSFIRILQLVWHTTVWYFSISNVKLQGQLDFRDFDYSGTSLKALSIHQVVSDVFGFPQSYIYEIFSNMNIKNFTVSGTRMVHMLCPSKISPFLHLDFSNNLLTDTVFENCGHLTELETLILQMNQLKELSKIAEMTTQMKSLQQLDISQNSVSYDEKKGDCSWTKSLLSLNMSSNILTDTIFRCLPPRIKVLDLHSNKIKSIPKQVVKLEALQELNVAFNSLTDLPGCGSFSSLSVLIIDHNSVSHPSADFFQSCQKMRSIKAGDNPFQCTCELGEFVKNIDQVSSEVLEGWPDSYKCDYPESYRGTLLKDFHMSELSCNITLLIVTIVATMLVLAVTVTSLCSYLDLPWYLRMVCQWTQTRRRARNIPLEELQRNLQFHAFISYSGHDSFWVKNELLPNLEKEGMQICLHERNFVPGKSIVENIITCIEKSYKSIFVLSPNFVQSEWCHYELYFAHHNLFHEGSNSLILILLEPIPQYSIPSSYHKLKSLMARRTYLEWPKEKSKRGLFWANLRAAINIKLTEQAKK
Assay: Antagonist activity at human TLR1/TLR2
Type: protein-complex assay
pIC50: −log10 of the molar value.
REPORTED_PROPERTY: pIC50

(a) CCOC(=O)c1ccc(CC(=O)c2ccc(O)c(O)c2O)o1
(b) CCCCCCOC(=O)c1cc(O)c(=O)c2c(O)c(O)c(OC)cc2c1
Query string: When a and b are compared, which has the higher number for pIC50? Your answer should be the label attached to the chosen record.
Result string: a
(a: 5.77, b: 5.04)

====

Target: Toll-like receptor 1/2 (Homo sapiens, UniProt O60603+Q15399)
REPORTED_PROPERTY: pEC50
Quick note: pEC50 values are minus log10 of concentrations in mol/L.

Query string: Recorded pEC50 for CCOC(=O)c1c(NC(=O)N2CCN(C)CC2)sc2c1CCC2 , please?
Result string: 6.26

====

Observed pIC50 values for Toll-like receptor 5 (Homo sapiens) are listed in what follows.
pIC50: −log10 of the molar value.
REPORTED_PROPERTY: pIC50

Query string: Recorded pIC50 for c1cnc2sc3c(Sc4nnc(-c5ccncc5)o4)ncnc3c2c1 , please?
Result string: 5.47

Query string: What would you report for c1ccc(-n2c(Sc3ncnc4c3sc3ncccc34)nnc2-c2ccncc2)cc1 ?
Result string: 5.50

====

Target: Toll-like receptor 1/2 (Homo sapiens, UniProt O60603+Q15399)
Assay: Antagonist activity at TLR1/TLR2 in HEK-Blue hTLR2 cells
Format: cell-based
pIC50: −log10 of the molar value.
REPORTED_PROPERTY: pIC50

Query string: Please provide the recorded pIC50 for COc1cccc(C=O)c1O , tested on Toll-like receptor 1/2 (Homo sapiens, UniProt O60603+Q15399).
Result string: 4.62

Query string: What would you report for COc1cccc(/C=N/c2cccc(C(=O)O)c2C)c1O ?
Result string: 4.71

====

Molecular target: Toll-like receptor 1/2 (Homo sapiens, UniProt O60603+Q15399)
Assay: Antagonist activity at TLR1/TLR2 (unknown origin)
Type: protein-complex assay
REPORTED_PROPERTY: pIC50
Quick note: pIC50 values are minus log10 of concentrations in mol/L.

Query string: Recorded pIC50 for CCCCCCOC(=O)c1cc(O)c(=O)c2c(O)c(O)c(OC)cc2c1 , please?
Result string: 6.24

====

Target: TLR2/TLR6 (Homo sapiens, UniProt O60603+Q9Y2C9)
Sequence (O60603 whole entry): as the sequence (O60603 whole entry) above
Sequence (Q9Y2C9 whole entry): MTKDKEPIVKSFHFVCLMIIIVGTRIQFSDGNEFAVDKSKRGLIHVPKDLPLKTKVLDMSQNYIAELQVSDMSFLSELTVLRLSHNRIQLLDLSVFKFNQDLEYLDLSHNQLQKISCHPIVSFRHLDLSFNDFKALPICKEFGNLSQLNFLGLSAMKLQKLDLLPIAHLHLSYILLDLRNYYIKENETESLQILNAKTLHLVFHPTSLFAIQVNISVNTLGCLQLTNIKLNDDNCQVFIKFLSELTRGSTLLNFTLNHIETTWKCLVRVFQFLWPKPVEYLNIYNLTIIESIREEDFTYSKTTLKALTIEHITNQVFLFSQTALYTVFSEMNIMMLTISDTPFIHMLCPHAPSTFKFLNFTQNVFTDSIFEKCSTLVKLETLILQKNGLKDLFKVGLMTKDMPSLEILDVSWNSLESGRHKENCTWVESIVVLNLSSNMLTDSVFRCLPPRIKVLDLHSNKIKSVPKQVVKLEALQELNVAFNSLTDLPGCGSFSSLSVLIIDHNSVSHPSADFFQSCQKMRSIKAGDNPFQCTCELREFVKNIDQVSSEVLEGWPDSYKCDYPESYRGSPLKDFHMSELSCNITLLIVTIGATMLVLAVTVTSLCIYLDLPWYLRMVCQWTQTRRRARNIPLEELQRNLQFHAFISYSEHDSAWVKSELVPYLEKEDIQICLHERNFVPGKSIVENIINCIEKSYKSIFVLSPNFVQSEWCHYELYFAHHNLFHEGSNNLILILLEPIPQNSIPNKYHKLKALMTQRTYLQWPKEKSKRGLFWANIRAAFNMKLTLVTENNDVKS
Experiment: Antagonist activity at human TLR2/TLR6
Format: protein-complex assay
REPORTED_PROPERTY: IC50 (µM)

Query string: Recorded IC50 for CCCCCCOC(=O)c1cc(O)c(=O)c2c(O)c(O)c(OC)cc2c1 , please?
Result string: 5.6

Query string: What would you report for CCOC(=O)c1ccc(CC(=O)c2ccc(O)c(O)c2O)o1 ?
Result string: 5.7

====

Target: Toll-like receptor 3 (Homo sapiens)
REPORTED_PROPERTY: IC50 (µM)
State just the number; it will be interpreted in µM.

Query string: Please provide the recorded IC50 for O=C(N[C@H](Cc1ccccc1)C(=O)O)c1cc2c(s1)CCCCC2 , tested on Toll-like receptor 3 (Homo sapiens).
Result string: 154

====

Target: Toll-like receptor 7 (Homo sapiens, UniProt Q9NYK1)
Sequence (Q9NYK1 whole entry): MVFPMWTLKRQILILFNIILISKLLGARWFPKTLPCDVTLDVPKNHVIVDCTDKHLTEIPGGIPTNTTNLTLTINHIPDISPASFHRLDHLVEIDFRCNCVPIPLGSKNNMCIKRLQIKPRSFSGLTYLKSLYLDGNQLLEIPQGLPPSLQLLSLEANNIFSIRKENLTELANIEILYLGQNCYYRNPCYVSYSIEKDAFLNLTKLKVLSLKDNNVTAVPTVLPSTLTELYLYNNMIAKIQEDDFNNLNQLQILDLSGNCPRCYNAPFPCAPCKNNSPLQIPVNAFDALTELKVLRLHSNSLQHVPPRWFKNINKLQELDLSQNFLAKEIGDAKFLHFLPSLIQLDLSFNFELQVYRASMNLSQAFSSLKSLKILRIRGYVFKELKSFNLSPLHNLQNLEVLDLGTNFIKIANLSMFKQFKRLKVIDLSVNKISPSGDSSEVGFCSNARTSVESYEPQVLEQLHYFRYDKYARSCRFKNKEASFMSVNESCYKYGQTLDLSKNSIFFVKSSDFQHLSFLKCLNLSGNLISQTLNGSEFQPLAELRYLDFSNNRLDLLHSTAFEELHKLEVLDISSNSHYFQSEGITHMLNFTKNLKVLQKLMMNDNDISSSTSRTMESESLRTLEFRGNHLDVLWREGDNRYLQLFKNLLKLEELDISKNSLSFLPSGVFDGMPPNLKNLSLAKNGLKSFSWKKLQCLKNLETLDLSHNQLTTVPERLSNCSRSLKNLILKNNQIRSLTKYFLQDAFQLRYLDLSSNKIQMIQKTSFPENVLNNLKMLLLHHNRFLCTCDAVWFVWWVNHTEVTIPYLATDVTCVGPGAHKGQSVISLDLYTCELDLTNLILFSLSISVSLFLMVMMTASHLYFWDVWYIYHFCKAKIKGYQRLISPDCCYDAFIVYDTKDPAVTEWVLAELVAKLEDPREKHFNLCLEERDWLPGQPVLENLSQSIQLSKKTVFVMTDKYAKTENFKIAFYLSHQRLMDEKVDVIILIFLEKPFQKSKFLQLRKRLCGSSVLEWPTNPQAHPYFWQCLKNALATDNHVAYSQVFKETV
REPORTED_PROPERTY: EC50 (µM)
State just the number; it will be interpreted in µM.

Query string: Recorded EC50 for CCCCn1cc2c(n1)c(N)nc1ccccc12 , please?
Result string: 0.19

====

Target: Toll-like receptor 8 (Homo sapiens, UniProt Q9NR97)
Sequence (Q9NR97 whole entry): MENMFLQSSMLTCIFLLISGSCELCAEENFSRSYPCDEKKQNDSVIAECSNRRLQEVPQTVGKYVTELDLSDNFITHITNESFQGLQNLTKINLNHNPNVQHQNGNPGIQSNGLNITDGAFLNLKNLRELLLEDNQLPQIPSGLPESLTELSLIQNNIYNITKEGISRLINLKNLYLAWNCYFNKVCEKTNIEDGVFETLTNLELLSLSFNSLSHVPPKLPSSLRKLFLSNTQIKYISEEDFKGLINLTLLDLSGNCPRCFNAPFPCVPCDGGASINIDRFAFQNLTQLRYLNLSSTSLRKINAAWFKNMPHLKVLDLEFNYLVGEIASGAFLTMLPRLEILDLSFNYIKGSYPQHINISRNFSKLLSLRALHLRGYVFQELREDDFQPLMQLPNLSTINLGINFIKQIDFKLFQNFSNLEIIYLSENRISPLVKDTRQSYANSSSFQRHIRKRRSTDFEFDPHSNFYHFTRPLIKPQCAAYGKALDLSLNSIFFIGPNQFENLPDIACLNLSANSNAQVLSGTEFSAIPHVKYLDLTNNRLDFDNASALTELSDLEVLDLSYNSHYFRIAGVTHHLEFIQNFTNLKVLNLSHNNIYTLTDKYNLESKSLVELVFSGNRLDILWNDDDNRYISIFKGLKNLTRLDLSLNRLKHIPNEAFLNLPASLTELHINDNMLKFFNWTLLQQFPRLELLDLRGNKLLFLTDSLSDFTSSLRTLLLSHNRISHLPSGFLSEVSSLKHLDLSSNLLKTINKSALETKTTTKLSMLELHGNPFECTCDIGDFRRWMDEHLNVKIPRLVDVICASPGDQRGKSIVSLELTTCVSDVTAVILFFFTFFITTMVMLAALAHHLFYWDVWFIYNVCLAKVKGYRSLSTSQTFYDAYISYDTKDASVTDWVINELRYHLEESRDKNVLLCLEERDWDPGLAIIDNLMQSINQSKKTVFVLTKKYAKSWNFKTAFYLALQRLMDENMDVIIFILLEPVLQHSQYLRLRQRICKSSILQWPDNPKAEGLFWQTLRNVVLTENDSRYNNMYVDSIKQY
REPORTED_PROPERTY: pIC50
Quick note: pIC50 values are minus log10 of concentrations in mol/L.

Query string: Please provide the recorded pIC50 for COc1ccc2c(-c3ccc(OCCCCO)c(C)c3)ccnc2c1 , tested on Toll-like receptor 8 (Homo sapiens, UniProt Q9NR97).
Result string: 10.00

====

Target: Toll-like receptor 4 (Mus musculus)
Sequence (Q9QUK6 whole entry): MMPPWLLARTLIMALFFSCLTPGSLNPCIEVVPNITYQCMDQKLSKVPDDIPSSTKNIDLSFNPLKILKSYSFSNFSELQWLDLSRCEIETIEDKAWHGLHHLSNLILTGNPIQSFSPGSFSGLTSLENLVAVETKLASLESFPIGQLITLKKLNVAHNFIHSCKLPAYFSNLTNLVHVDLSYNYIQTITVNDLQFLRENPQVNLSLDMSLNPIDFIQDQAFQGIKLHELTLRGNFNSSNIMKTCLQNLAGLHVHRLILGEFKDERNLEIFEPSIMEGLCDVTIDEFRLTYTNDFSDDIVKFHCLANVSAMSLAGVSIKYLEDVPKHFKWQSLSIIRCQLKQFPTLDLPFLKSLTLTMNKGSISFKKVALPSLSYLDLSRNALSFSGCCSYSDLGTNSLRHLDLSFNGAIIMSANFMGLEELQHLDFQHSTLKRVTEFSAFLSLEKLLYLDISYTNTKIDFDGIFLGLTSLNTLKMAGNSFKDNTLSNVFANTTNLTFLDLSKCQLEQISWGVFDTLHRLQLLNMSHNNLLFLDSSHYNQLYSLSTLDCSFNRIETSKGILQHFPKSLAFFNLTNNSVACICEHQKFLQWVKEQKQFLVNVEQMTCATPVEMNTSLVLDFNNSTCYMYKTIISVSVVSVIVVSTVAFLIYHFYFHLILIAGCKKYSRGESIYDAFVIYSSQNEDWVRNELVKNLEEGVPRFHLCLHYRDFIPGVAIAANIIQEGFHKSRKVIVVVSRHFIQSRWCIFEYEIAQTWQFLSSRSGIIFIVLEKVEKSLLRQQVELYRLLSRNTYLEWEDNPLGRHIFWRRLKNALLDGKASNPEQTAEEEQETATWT
Assay: Antagonist activity at TLR4 in mouse peritoneal macrophages assessed as inhibition of NO production
Type: cell-based, Peritoneal macrophage
REPORTED_PROPERTY: pIC50
Quick note: pIC50 values are minus log10 of concentrations in mol/L.

Query string: Recorded pIC50 for CCOC(=O)C1=CCCC[C@H]1S(=O)(=O)Nc1ccc(F)cc1Cl [RESATORVID] , please?
Result string: 8.74

====

pEC50: −log10 of the molar value.
Observed pEC50 values for Toll-like receptor 7 (Homo sapiens) are listed in what follows.
REPORTED_PROPERTY: pEC50

(I) CCCN(CCC)C(=O)C1=Cc2ccc(-c3cccc(C(=O)CC)c3)cc2N=C(N)C1
(II) COCCOc1nc(N)c2[nH]c(=O)n(Cc3ccccc3)c2n1
Query string: Param metric = pEC50; output whichever of I , II has the minimum value. Your answer should be the label attached to the chosen record.
Result string: II

====

Target: Toll-like receptor 8 (Homo sapiens, UniProt Q9NR97)
REPORTED_PROPERTY: EC50 (nM)
State just the number; it will be interpreted in nM.

Query string: Recorded EC50 for CCCN(CCC)C(=O)C1=Cc2ccc(-c3cccc(C(=O)CC)c3)cc2N=C(N)C1 , please?
Result string: 8

====

Target: UniProt Q9NR97
pEC50: −log10 of the molar value.
REPORTED_PROPERTY: pEC50

(P) CCCCc1nc2c(N)nc3ccccc3c2o1
(Q) CCCCn1cc2c(n1)c(N)nc1ccccc12
Query string: When P and Q are compared, which has the higher number for pEC50? Your answer should be the label attached to the chosen record.
Result string: Q
(Q: 7.25, P: 6.74)

====

Target: Toll-like receptor 8 (Homo sapiens, UniProt Q9NR97)
Sequence (Q9NR97 whole entry): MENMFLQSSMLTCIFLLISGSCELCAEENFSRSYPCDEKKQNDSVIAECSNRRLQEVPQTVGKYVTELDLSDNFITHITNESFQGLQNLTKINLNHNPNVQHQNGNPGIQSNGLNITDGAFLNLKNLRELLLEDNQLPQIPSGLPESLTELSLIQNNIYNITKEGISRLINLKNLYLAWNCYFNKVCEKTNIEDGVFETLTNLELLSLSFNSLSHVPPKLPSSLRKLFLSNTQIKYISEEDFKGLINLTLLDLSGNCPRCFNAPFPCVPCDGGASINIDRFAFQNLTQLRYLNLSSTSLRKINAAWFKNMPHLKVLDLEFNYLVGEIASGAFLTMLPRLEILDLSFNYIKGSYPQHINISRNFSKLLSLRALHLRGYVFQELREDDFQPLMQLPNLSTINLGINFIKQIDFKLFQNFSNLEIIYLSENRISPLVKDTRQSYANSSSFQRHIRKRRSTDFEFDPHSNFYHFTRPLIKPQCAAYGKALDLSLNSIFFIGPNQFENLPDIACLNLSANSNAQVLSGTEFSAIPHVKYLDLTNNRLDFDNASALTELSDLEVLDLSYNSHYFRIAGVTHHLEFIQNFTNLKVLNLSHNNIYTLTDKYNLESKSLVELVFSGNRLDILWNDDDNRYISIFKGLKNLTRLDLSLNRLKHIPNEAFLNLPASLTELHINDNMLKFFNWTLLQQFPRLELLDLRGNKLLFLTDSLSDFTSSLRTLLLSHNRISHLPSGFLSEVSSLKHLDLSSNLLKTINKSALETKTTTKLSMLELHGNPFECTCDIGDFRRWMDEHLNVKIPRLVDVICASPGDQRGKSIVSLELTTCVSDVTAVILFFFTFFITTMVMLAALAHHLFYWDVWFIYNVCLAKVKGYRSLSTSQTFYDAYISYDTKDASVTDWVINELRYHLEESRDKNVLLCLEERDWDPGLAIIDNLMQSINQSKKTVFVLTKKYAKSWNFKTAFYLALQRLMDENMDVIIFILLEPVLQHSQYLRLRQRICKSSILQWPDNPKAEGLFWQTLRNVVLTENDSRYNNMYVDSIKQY
REPORTED_PROPERTY: pKd
Quick note: pKd values are minus log10 of concentrations in mol/L.

Query string: Recorded pKd for Cc1cccc(-c2ccnc3c(C(N)=O)cnn23)c1 , please?
Result string: 6.66
